Read-out: CYP2E1 (gene 1571)
EXPERIMENTAL_PROTOCOL: LTEA_HepaRG_CYP2E1: Life Technologies and Expression Analysis (LTEA) Assay for CYP2E1 using HepaRG (AID 2283485)
MEASUREMENT_SETUP: mRNA level, 48 h; actives raise or lower the signal
Active and inactive are the calls of the source. The calls were made as follows: active = hit-call score of the fitted dose curve at least 0.9, where 1 is the maximum; inactive = score below 0.9.
Outcomes you can answer with include only these: active, inactive

-- ask # lookup: test call for CCOP(=S)(OCC)SCSP(=S)(OCC)OCC
-- reply active

-- ask # lookup: test call for CC(C)(c1ccccc1)c1ccc(O)c(C(C)(C)c2ccccc2)c1
-- reply active

-- ask # lookup: test call for O=C(O)C(F)(F)C(F)(F)C(F)(F)C(F)(F)C(F)(F)C(F)(F)F
-- reply inactive

-- ask # lookup: test call for O=C(Nc1ccc2[nH]ccc2c1)c1cc2cc(F)ccc2n1Cc1cccc(F)c1
-- reply active

-- ask # lookup: test call for Cn1sc(Cl)cc1=O
-- reply inactive

-- ask # lookup: test call for NC(=O)O
-- reply inactive

-- ask # lookup: test call for CCC(=O)C(CC(C)N(C)C)(c1ccccc1)c1ccccc1 (stereo not given)
-- reply active

-- ask # lookup: test call for CCN1CCC2(CC1)COc1cc3c(cc12)N(C(=O)c1ccc(-c2ccc(-c4nnc(C)o4)cc2C)cc1)CC3
-- reply active

-- ask # lookup: test call for CCC(C)(C)c1ccc(O)c(C(C)(C)CC)c1
-- reply inactive

-- ask # lookup: test call for CCCCCCCCc1ccc(O)cc1
-- reply inactive

-- ask # lookup: test call for CC(=O)[O][Hg][c]1ccccc1
-- reply active

-- ask # lookup: test call for Oc1cccc2cccnc12
-- reply inactive

-- ask # lookup: test call for Cc1ccccc1N
-- reply inactive

-- ask # lookup: test call for O=C(O)C(Cl)(Cl)Cl
-- reply inactive

-- ask # lookup: test call for O=C1C2(Cl)C3(Cl)C4(Cl)C(Cl)(Cl)C5(Cl)C3(Cl)C1(Cl)C5(Cl)C24Cl (stereo not given)
-- reply active

====

TESTED_ON: Nuclear receptor subfamily 4 group A member 2 (Homo sapiens) (UniProt P43354)
Sequence (P43354 whole entry, looked up): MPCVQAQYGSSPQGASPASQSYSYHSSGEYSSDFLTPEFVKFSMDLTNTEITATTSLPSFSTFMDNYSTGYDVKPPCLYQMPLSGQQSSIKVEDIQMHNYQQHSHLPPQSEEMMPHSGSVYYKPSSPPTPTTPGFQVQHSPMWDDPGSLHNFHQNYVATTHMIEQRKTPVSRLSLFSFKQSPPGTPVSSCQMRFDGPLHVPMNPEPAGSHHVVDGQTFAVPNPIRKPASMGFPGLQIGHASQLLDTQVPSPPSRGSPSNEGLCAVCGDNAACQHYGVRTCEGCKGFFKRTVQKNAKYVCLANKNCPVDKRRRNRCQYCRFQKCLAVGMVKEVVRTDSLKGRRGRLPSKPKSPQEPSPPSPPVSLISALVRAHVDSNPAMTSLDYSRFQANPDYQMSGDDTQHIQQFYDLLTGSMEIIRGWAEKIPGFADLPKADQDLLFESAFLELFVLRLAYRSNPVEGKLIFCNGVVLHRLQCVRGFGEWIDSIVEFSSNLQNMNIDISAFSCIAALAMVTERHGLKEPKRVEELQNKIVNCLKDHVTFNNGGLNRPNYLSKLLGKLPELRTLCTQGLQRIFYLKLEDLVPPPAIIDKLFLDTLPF
EXPERIMENTAL_PROTOCOL: ATG_NURR1_TRANS: Attagene TRANS-FACTORIAL HepG2 Assay for human Nuclear Receptor Related Protein 1 (NURR1) (AID 2282985)
MEASUREMENT_SETUP: HepG2 Attagene TRANS reporter, mRNA readout
Results filed as inconclusive are left out. The source made the active and inactive calls. The calls were made as follows: active = hit-call score of the fitted dose curve at least 0.9, where 1 is the maximum; inconclusive = response in the unintended direction; inactive = score below 0.9.
RECORDED_METRIC: AC50

compound=COP(=O)(OC)O/C(=C\Cl)c1cc(Cl)c(Cl)cc1Cl recorded_metric=AC50 result="115 µM (active)"
compound="Clc1ccc(COC(Cn2ccnc2)c2ccc(Cl)cc2Cl)cc1 (stereo unspecified)" recorded_metric=AC50 result=inactive
compound=CCOC(=O)CP(=O)(OCC)OCC recorded_metric=AC50 result=inactive
compound=O=C1C(Cl)=C(Cl)C(=O)c2ccccc21 recorded_metric=AC50 result=inactive
compound=CCOP(=S)(OCC)SCSP(=S)(OCC)OCC recorded_metric=AC50 result=inactive

AC50 in this record for Nc1cccc(Cl)c1 : inactive

AC50 in this record for Cc1ccccc1N : inactive

AC50 in this record for CC(=[OH+])/C=C(/C)[O-].CC(=[OH+])/C=C(/C)[O-].CC(=[OH+])/C=C(/C)[O-].[Fe] : inactive

AC50 in this record for CCNc1nc(NC(C)(C)C)nc(SC)n1 : inactive

AC50 in this record for Cc1cc(Cl)ccc1O[C@H](C)C(=O)O : inactive

AC50 in this record for CC1(C)CCC(Cc2ccc(Cl)cc2)C1(O)Cn1cncn1 (stereo unspecified) : inactive

AC50 in this record for CC(C)(c1ccc(OCC2CO2)cc1)c1ccc(OCC2CO2)cc1 (stereo unspecified) : inactive

AC50 in this record for CCCCCCCCC(=O)NCc1ccc(O)c(OC)c1 : inactive

AC50 in this record for COC(=O)c1sccc1S(=O)(=O)NC(=O)Nc1nc(C)nc(OC)n1 : inactive

AC50 in this record for BrCCBr : inactive

src = PubChem BioAssay (EPA / NIEHS)
